Property: pIC50; scope: individual compounds
Biological target: HSP90a protein (Homo sapiens)
Construct: purchased BPS Bioscience 50298
Assay: HSP90α-binding fluorescent polarization (FP) assay, BODIPY-labeled RNK04010 probe
Settings: FP competition with RNK04010 (BODIPY-labeled), 5 nM, 300 min at 25° C.
pIC50: −log10 of the molar value.

- compound: "C=CC(=O)N1CCN(c2nc(NCCC(=O)NCc3ccc(-n4c(O)nnc4-c4cc(C(C)C)c(O)cc4O)cc3)nc3c2CCN(c2cccc4ccccc24)C3)C[C@H]1CC#N [Compound 91, trifluoroacetic acid]"
  pIC50: "< 6.00"

Could you now look at the following compound, please?
Record summary for C=CC(=O)N1CCN(c2nc(OC[C@@H]3C[C@H](N4CCC(C(=O)N5CCN(Cc6ccc(-n7c(C(=O)NC)nnc7-c7cc(C(C)C)c(O)cc7O)cc6)CC5)CC4)CN3C)nc3c2CCN(c2cccc4cccc(Cl)c24)C3)C[C@@H]1CC#N [Compound 234] : reported pIC50 = > 7.00

====

Molecular target: KRAS(G12C) (Homo sapiens, UniProt P01116, G12C)
Sequence (P01116 1-188 isoform P01116-2 G12C): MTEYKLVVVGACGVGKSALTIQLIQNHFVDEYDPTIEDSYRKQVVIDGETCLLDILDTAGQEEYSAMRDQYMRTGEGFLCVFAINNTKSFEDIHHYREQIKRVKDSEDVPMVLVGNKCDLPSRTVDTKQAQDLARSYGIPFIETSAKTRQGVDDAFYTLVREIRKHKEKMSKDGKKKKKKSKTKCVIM
Test: KRAS(G12C)/SOS1 homogeneous time-resolved fluorescence (HTRF) assay
Parameters: purchased Cisbio 63ADK000CB16PEG
Conditions: absence of GTP, 4° C. for 3 hr, read-out: KRAS (G12C) binding
pIC50: −log10 of the molar value.
# key: entry, value: pIC50

- compound: "C=CC(=O)N1CCN(c2nc(OC[C@@H]3CCN(C(=O)C4CCN(Cc5ccc(-n6c(O)nnc6-c6cc(C(C)C)c(O)cc6O)cc5)CC4)C3)nc3c2CCN(c2cccc4cccc(Cl)c24)C3)C[C@@H]1CC#N [Compound 148]"
  experimental-readout: "pIC50"
  reported-result: "6.00 to 7.00"

Read the next record carefully.
// pIC50 value for C=CC(=O)N1CCN(c2nc(OC[C@@H]3CC[C@H](CN4CCN(Cc5ccc(-n6c(C(=O)NCC)nnc6-c6cc(C(C)C)c(O)cc6O)cc5)CC4)N3C)nc3c2CCN(c2cccc4cccc(Cl)c24)C3)C[C@@H]1CC#N [Compound 263] : > 7.00

====

# Lookup of reported pEC50 keyed by entry
System: NCI-H358 human non-small cell lung cancer
Assay: NCI-H358 CCK-8 proliferation assay
Type: cell-based
Conditions: NCI-H358 cells, 72 hr
Description: The following cancer cell lines were employed: BT-474 human breast carcinoma (ATCC, #HTB-20); MIA PaCa-2 human pancreatic carcinoma [2 copies KRAS(G12C)](ATCC, #CRL-1420); NCI-H23 human non-small cell lung cancer [1 copy KRAS(G12C)](ATCC, #CRL-5800); NCI-H358 human non-small cell lung cancer [1 copy KRAS(G12C)](ATCC, #CRL-5807); LU65A human lung carcinoma (Pharmaron, Beijing, China). Cell lines were cultured essentially according to ATCC and Pharmaron recommendations. […]
pEC50: −log10 of the molar value.

Example entries and their recorded answers appear below.
- compound: "C=CC(=O)N1CCN(c2nc(NCCC(=O)N3CCN(Cc4ccc5c(c4)CN(C(=O)c4cc(CCC)c(O)cc4O)C5)CC3)nc3c2CCN(c2cc(O)cc4ccccc24)C3)CC1 [Compound 94, trifluoroacetic acid]"
  reported-result: "< 6.00"
- compound: "CCCc1cc(-c2nnc(O)n2-c2ccc(CN3CCN(CC4CCN(C(=O)CCNc5nc6c(c(N7CCN(C(=O)CC)CC7)n5)CCN(c5cc(O)cc7ccccc57)C6)CC4)CC3)cc2)c(O)cc1O [Compound 52]"
  reported-result: "< 6.00"
- compound: "C=CC(=O)N1CCN(c2nc(NCCC(=O)NCCc3ccc(CN4CCC(Cc5ccc(-n6c(C(=O)NCC(F)(F)F)nnc6-c6cc(C(C)C)c(O)cc6O)cc5)CC4)cc3)nc3c2CCN(c2cc(O)cc4ccccc24)C3)CC1 [Compound 24, trifluoroacetic acid]"
  reported-result: "6.00 to 7.00"
- compound: "CCC(=O)N1CCN(c2nc(NCCC(=O)NCc3ccc(-n4c(O)nnc4-c4cc(C(C)C)c(O)cc4O)cc3F)nc3c2CCN(c2cc(O)cc4ccccc24)C3)CC1 [Compound 33, trifluoroacetic acid]"
  reported-result: "< 6.00"

Record summary for C=CC(=O)N1CCN(c2nc(NCCC(=O)NCc3ccc(-n4c(O)nnc4-c4cc(CCC)c(O)cc4O)cc3)nc3c2CCN(c2cccc4cccc(Cl)c24)C3)C[C@H]1CC#N [Compound 89] : reported pEC50 = < 6.00

For reference, reported pEC50 for C=C(F)C(=O)N1CCN(c2nc(NCCC(=O)NCc3ccc(CN4CCC(Cc5ccc(-n6c(C(=O)NCC(F)(F)F)nnc6-c6cc(C(C)C)c(O)cc6O)cc5)CC4)cc3)nc3c2CCN(c2cc(O)cc4ccccc24)C3)CC1 [Compound 154] stands at 6.00 to 7.00
